target: Huntingtin (Homo sapiens) (UniProt P42858); assay: mutant huntingtin-calmodulin interaction inhibitors – biochemical, AlphaScreen, primary screen (AID 1671202); conditions: AlphaScreen His-mHTT/GST-CaM binding, luminescence; at 15 µM;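 also: 0% = both proteins with DMSO and 100% = one protein alone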
Sequence (P42858 whole entry, looked up, stated change not applied): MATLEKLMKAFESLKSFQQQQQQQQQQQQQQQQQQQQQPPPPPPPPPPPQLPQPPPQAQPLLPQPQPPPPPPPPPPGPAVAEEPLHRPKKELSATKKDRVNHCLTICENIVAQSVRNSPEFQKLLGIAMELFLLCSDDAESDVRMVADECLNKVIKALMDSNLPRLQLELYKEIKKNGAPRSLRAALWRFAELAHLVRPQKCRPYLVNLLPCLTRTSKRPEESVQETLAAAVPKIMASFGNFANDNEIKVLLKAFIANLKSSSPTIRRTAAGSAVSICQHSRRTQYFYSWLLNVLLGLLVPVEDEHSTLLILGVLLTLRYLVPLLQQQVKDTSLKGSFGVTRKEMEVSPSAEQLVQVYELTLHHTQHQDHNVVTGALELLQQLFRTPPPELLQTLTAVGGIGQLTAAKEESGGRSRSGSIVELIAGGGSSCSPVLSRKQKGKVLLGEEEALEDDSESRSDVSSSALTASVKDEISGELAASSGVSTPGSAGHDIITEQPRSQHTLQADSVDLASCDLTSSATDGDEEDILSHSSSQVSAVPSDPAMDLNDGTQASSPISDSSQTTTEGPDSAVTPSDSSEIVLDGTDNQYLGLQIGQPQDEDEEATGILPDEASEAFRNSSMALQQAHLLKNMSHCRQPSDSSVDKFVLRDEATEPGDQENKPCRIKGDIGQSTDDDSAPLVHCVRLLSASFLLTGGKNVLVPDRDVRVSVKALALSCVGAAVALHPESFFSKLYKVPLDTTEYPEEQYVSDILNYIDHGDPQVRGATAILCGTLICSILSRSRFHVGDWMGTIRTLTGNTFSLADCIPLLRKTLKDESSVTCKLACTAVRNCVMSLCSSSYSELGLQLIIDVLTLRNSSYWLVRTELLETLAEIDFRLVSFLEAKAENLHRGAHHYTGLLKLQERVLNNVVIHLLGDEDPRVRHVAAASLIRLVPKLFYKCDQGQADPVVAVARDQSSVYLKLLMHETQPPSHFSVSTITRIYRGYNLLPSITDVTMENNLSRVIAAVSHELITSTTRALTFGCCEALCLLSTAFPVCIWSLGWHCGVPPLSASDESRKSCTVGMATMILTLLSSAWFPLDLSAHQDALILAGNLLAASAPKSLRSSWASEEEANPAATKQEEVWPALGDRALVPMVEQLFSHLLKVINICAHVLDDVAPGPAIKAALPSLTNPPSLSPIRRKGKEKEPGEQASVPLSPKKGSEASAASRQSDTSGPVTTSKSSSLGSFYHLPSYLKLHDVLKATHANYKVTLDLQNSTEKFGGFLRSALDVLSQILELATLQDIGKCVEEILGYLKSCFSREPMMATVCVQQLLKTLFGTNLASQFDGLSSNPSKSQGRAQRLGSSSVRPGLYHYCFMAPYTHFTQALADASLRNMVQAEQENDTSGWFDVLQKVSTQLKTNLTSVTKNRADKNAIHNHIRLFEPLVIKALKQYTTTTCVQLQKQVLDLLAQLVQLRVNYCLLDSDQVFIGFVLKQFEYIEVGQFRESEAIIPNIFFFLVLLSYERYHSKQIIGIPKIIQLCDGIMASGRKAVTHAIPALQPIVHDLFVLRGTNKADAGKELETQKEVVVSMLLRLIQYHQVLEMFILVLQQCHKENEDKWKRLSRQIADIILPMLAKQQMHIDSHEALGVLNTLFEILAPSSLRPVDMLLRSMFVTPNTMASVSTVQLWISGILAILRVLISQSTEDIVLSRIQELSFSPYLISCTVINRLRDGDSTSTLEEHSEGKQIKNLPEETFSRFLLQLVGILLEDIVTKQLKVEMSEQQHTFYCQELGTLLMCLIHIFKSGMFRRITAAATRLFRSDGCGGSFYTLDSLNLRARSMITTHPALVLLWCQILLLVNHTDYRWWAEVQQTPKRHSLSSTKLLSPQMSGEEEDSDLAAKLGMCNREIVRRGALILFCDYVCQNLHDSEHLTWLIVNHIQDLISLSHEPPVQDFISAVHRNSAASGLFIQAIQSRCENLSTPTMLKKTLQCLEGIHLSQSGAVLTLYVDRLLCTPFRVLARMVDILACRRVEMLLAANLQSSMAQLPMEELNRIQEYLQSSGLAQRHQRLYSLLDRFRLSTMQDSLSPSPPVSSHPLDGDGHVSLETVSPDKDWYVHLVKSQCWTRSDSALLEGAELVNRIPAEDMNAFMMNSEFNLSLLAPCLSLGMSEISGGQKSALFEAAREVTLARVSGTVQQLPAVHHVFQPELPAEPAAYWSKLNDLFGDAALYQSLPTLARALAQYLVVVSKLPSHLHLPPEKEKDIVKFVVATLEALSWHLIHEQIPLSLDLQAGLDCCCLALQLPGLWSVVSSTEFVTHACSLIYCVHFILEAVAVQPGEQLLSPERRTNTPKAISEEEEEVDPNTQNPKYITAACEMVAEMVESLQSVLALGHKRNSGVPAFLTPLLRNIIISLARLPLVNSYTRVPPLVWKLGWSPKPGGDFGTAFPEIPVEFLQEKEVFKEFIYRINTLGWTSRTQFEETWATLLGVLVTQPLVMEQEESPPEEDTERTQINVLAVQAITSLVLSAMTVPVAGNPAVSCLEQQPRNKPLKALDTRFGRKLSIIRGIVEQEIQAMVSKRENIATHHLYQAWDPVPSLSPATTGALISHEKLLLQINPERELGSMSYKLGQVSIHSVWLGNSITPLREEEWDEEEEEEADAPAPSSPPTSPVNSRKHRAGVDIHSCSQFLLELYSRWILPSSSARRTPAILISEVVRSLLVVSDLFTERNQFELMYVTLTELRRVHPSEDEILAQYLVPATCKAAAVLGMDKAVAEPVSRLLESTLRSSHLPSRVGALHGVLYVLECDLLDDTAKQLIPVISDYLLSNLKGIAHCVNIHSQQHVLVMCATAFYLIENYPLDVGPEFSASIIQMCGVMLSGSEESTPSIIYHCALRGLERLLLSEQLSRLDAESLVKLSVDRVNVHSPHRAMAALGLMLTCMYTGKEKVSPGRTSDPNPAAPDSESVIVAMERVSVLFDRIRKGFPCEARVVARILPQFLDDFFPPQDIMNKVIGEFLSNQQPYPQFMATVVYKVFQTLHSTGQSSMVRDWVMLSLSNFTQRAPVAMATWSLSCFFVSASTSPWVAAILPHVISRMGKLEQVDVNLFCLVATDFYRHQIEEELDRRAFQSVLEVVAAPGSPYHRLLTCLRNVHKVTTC
Out of some 190,000 compounds screened, about 6,900 (3.6%) were called active. Rule as the data show it: active = inhibition above about 50%; inactive = the rest. The sample as a whole holds a higher share of actives than the screen did.
Your response should consist of one outcome taken from Y = active, N = inactive

COMPOUND	ASSIGNED_LABEL
CC1C(=O)N(Cc2cn(Cc3ccco3)nn2)CCS(=O)(=O)N1Cc1ccc(-c2cccc(CO)c2)cc1 (stereo not given)	N

--- query ---
Field: outcome | Entry: O=C(COc1ccc(Cl)cc1Cl)NCCSc1c[nH]c2ccccc12
Y

---

biological target: Huntingtin (Homo sapiens); test: mutant huntingtin-calmodulin interaction inhibitors – biochemical, AlphaScreen, primary screen (AID 1671202); details: AlphaScreen His-mHTT/GST-CaM binding, luminescence; at 15 µM, stronger effect = higher value;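 also: 0% = both proteins with DMSO and 100% = one protein alone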
Out of some 190,000 compounds screened, about 6,900 (3.6%) were called active. This excerpt belongs to a sample that is enriched for actives.
EXPERIMENTAL_READOUT: inhibition

Would you please look over these solved cases?
MOLECULE	TGT	EXPERIMENTAL_READOUT	RECORDED_VALUE
COc1cccc(C(=O)N(CC#N)CC#N)c1	Huntingtin (Homo sapiens)	inhibition	4.4% (inactive)
CCOc1ccc2nc(NC(=O)c3ccc(OC)cc3)sc2c1	Huntingtin (Homo sapiens)	inhibition	-5% (inactive)
CCC(Sc1nc2n[nH]c(C)c2c(=N)n1-c1ccc(Br)cc1)C(=O)NCCOC (stereo unspecified)	Huntingtin (Homo sapiens)	inhibition	75% (active)

Dear colleague, I am looking for the recorded inhibition of the following molecule: O=C(Nc1ccc(N2CCN(C3CCCC3)C2=O)nc1)c1cc(F)cc(F)c1
-7.5% (inactive)

# get_value(readout='inhibition', item= CCOc1ccc(-n2c(SCC(=O)NC3CCCCC3)nc3n[nH]c(C)c3c2=N)cc1 )
10% (inactive)

Look up inhibition for this molecule: COc1ccccc1NC(=O)Cn1nnc(-c2ccccc2F)n1
-2.8% (inactive)

---

Collected inhibition values appear next to each entry.
target: Huntingtin (Homo sapiens) (UniProt P42858); test: mutant huntingtin-calmodulin interaction inhibitors – biochemical, AlphaScreen, primary screen (AID 1671202); details: AlphaScreen His-mHTT/GST-CaM binding, luminescence; at 15 µM, stronger effect = higher value;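 also: 0% = both proteins with DMSO and 100% = one protein alone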
Out of some 190,000 compounds screened, about 6,900 (3.6%) were called active. Many of the other results were omitted from the sample, so actives are more common in it than they were.

Worked set:
COMPOUND	TGT	inhibition
Cc1cccc(OCC(O)CNC2CCCC2)c1 (centres undefined)	Huntingtin (Homo sapiens) (UniProt P42858)	-1.4% (inactive)
Cc1cc(C(=O)N2CC(C(=O)Nc3cccc(NS(C)(=O)=O)c3)C2)no1	Huntingtin (Homo sapiens) (UniProt P42858)	-19.8% (inactive)
COc1ccc(NC(=O)C[C@H]2C(=O)N(CCc3ccccc3)C[C@@H]2C)cc1	Huntingtin (Homo sapiens) (UniProt P42858)	-5.1% (inactive)
COc1cc(OC)c(C2Oc3ccccc3C3CC(c4cccs4)=NN32)cc1OC (centres undefined)	Huntingtin (Homo sapiens) (UniProt P42858)	52% (active)

GET /values?readout=inhibition&item= N#Cc1ccc(CSc2ncccn2)cc1
-1.95% (inactive)

Entry under review: CCCC(=O)N1CCN(c2nc3c(s2)c(C)nn3-c2ccc(F)cc2)CC1 . Reported inhibition?
0.3% (inactive)

Reported inhibition for O=[N+]([O-])c1cc(Cl)ccc1N1CCCNCC1 : what is it?
-0.3% (inactive)

// returns reported inhibition for input Cc1ccc(N2CCN(C3CCCCCC3)CC2)cc1
7.2% (inactive)

For CC(=O)Nc1ccc(N2CCCCC2)nc1 , what is its reported inhibition?
2.4% (inactive)

Request the reported inhibition associated with Cc1cc(C(=O)NCc2ccc(C)o2)c2cccc(-c3cccs3)c2n1
-56.5% (inactive)

Which inhibition reading was recorded for the compound Cc1ccc(CNC(=O)C2(C)CCCN(S(=O)(=O)c3cc(C)c(C)cc3C)C2)cc1 (centres undefined) ?
52.3% (active)

Give its inhibition value. Item: O=C1CSC(c2ccc(F)cc2)N1c1ccc(Br)cc1 (centres undefined)
-18% (inactive)

GET /values?readout=inhibition&item= Cc1cc(N2N=NC3C(=O)N(c4ccc(F)cc4)C(=O)C32)ccc1Br (centres undefined)
-11.3% (inactive)

Any idea what inhibition was measured for COc1cc(C(c2cc3c(cc2O)OCO3)N2CCCC2)cc(OC)c1OC (centres undefined) ?
81.6% (active)

Field request: inhibition | item: COc1cccc(OC)c1C(=O)Nc1sc2c(c1C(N)=O)CCCC2
25.3% (inactive)
